# System: E. faecalis VRE 53
# assayDetails: MIC, broth microdilution, vancomycin-resistant E. faecalis VRE 53 (VanA)
# Format: cell-based, Enterococcus faecalis
# assaySetup: Enterococcus faecalis VRE 53 (vancomycin-resistant); read-out: MIC
# Description: The minimum inhibitory concentration (MIC) was determined using the broth microdilution method according to the antimicrobial susceptibility testing standards of the clinical and laboratory standards institute ([Clinical and Laboratory Standards Institute [CLSI], 2012]). Ultrapure water and non-inoculated broth were used as controls. In one case, a final concentration of 10 μM vancomycin was included with the vancomycin analog or control antibiotic.
Listed here: items and their measured MIC.
Reply numerically in µM, unit not repeated.

[
  {
    "compound": "C#Cc1ccc(NC(=O)CNC(=O)C2NC(=O)C3NC(=O)C(NC(=O)C4NC(=O)C(CC(N)=O)NC(=O)C(NC(=O)C(CC(C)C)NC)C(O)c5ccc(c(Cl)c5)Oc5cc4cc(c5OC4OC(CO)C(O)C(O)C4OC4CC(C)(N)C(O)C(C)O4)Oc4ccc(cc4Cl)C3O)c3ccc(O)c(c3)-c3c(O)cc(O)cc32)cc1 (centres unmarked)",
    "unitLabel": "µM",
    "reported": 6.25
  },
  {
    "compound": "CNC(CC(C)C)C(=O)NC1C(=O)NC(CC(N)=O)C(=O)NC2C(=O)NC3C(=O)NC(C(=O)NC(C(=O)NCCCNC(=O)c4cc5ccccc5s4)c4cc(O)cc(O)c4-c4cc3ccc4O)C(O)c3ccc(c(Cl)c3)Oc3cc2cc(c3OC2OC(CO)C(O)C(O)C2OC2CC(C)(N)C(O)C(C)O2)Oc2ccc(cc2Cl)C1O (centres unmarked)",
    "unitLabel": "µM",
    "reported": 25
  },
  {
    "compound": "CCCCC[N+](C)(C)CCCNC(=O)c1ccc(NC(=O)CNC(=O)C2NC(=O)C3NC(=O)C(NC(=O)C4NC(=O)C(CC(N)=O)NC(=O)C(NC(=O)C(CC(C)C)NC)C(O)c5ccc(c(Cl)c5)Oc5cc4cc(c5OC4OC(CO)C(O)C(O)C4OC4CC(C)(N)C(O)C(C)O4)Oc4ccc(cc4Cl)C3O)c3ccc(O)c(c3)-c3c(O)cc(O)cc32)cc1 (centres unmarked)",
    "unitLabel": "µM",
    "reported": 50
  },
  {
    "compound": "CNC(CC(C)C)C(=O)NC1C(=O)NC(CC(N)=O)C(=O)NC2C(=O)NC3C(=O)NC(C(=O)NC(C(=O)NCC(=O)Nc4ccc(C=Cc5ccc(N)cc5)cc4)c4cc(O)cc(O)c4-c4cc3ccc4O)C(O)c3ccc(c(Cl)c3)Oc3cc2cc(c3OC2OC(CO)C(O)C(O)C2OC2CC(C)(N)C(O)C(C)O2)Oc2ccc(cc2Cl)C1O (centres unmarked)",
    "unitLabel": "µM",
    "reported": 25
  }
]

Provide only the value of recorded MIC for CN[C@H](CC(C)C)C(=O)N[C@H]1C(=O)N[C@@H](CC(N)=O)C(=O)N[C@H]2C(=O)N[C@H]3C(=O)N[C@H](C(=O)N[C@H](C(=O)NCC(=O)Nc4ccc5c(c4)Cc4ccccc4-5)c4cc(O)cc(O)c4-c4cc3ccc4O)[C@H](O)c3ccc(c(Cl)c3)Oc3cc2cc(c3O[C@@H]2O[C@H](CO)[C@@H](O)[C@H](O)[C@H]2O[C@H]2C[C@](C)(N)[C@H](O)[C@H](C)O2)Oc2ccc(cc2Cl)[C@H]1O
12.5

# credit: paper PMC6001238
